target: CYP3A4 (Homo sapiens (Human)); experiment: CYP inhibition in human liver microsomes, CYP3A4; type: in vitro ADME; conditions: 0.05-50 μM
Sequence (P08684 whole entry): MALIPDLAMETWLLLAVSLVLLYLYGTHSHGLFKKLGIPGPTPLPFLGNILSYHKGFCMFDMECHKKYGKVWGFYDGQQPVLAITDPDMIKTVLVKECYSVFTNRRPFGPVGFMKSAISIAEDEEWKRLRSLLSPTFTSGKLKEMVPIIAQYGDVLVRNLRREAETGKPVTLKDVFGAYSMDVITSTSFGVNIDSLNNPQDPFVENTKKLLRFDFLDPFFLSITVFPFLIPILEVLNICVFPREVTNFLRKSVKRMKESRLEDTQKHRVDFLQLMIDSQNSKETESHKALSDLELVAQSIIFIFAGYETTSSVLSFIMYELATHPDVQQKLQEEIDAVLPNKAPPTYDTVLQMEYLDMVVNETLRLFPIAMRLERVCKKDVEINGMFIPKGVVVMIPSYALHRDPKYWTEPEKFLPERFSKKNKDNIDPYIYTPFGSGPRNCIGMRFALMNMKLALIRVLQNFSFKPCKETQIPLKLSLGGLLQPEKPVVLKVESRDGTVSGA
readout: IC50

stdin: Query (compound): `CCN1CCN(Cc2cc(F)c(NC(=O)Cc3ccc(-c4cnc5cc(OC)c(OC)cc5c4)nc3)cc2C(F)(F)F)CC1` ; field requested: IC50
stdout: > 50 µM

----------
assay: Pharmacokinetics study of mice; type: in vivo; details: mouse, 2.5 mg/kg; 2.5 mpk oral administration, male CD-1 mice, plasma
readout: Tmax

stdin: Look at this molecule and give its reported Tmax. CCN1CCN(Cc2cc(F)c(NC(=O)Cc3ccc(-c4cnc5cc(OC)c(OC)cc5c4)nc3)cc2C(F)(F)F)CC1 [Compound 1]
stdout: 8 h

Just for reference, patent US20230312504A1 is where these values come from.
